# target.under.test: HLA-A*01:01
# method.summary: IEDB peptide-MHC binding, purified MHC/competitive/radioactivity; filed as Kd, often an IC50 or EC50 that approximates it; bounds were set here for any values at or beyond the usual limits of such assays
# assay.conditions: source organism: Mammarenavirus guanaritoense
parameter: Kd (µM)

residue_codes=ILNFVAHVY unit_of_measure=µM censoring_sign== numeric_result=7.94
residue_codes=SVSGTFVAEF unit_of_measure=µM censoring_sign=≥ numeric_result=45.2

---

# target.under.test: HLA-A*23:01
# method.summary: IEDB peptide-MHC binding, purified MHC/competitive/radioactivity; filed as Kd, often an IC50 or EC50 that approximates it; bounds were set here for any values at or beyond the usual limits of such assays
# assay.conditions: source organism: Mammarenavirus juninense
pKd: −log10 of the molar value.
parameter: pKd

residue_codes=LCLSGDGWPY target_under_test=HLA-A*23:01 result="≤ 4.15"
